Item-by-item account of EC50
System tested: UniProt:P41149
Sequence (P41149 whole entry): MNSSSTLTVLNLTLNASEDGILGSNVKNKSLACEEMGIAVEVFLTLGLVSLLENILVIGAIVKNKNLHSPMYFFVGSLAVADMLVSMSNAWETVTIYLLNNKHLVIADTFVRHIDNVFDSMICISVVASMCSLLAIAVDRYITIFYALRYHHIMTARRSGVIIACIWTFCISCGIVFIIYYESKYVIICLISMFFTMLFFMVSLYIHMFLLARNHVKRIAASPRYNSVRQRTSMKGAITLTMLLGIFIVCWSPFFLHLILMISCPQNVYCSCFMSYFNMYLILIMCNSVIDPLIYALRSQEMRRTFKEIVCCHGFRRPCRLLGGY
Test summary: Agonist activity at mouse MC5R expressed in HEK293 cells by beta-galactosidase reporter gene assay
Numbered stars: 1 amine (or outer) side, 2 acyl side, 3 side chain; on linkers, the order of the positions; unused ones are H or OH. Bridge positions count the residues as written; N and C are the ends. Square brackets hold non-standard residues; d marks the D form. Peptide text beside a SMILES is read from it. N(2-Aminoethyl)Gly = O=C(CN(CCN[*:3])[*:1])[*:2]; Suc = O=C(CCC(=O)[*:2])[*:1]; Nphe = O=C(O)CNCc1ccccc1
Readout type: EC50 (µM)

[
  {
    "Compound": "N=C(N)NCCC[C@@H]1NC(=O)[C@@H](Cc2ccccc2)NC(=O)CN(Cc2ccccc2)C(=O)CCC(=O)NCCN(CC(N)=O)C(=O)[C@H](Cc2c[nH]c3ccccc23)NC1=O",
    "Readout type": "EC50",
    "Val": 1.65
  },
  {
    "Compound": "NC(=O)[C@H](Cc1c[nH]c2ccccc12)NC(=O)[C@H](CCCN=C(N)N)NC(=O)[C@@H](Cc1ccccc1)NC(=O)[C@@H](N)Cc1ccccc1",
    "Readout type": "EC50",
    "Val": 0.143
  },
  {
    "Compound": "NC(=O)CN1CCNC(=O)CCC(=O)N[C@@H](Cc2ccccc2)C(=O)N(Cc2ccccc2)CC(=O)N[C@@H](CCCN=C(N)N)C(=O)N[C@@H](Cc2c[nH]c3ccccc23)C1=O (F[Nphe]RW[N(2-Aminoethyl)Gly]-NH2; linker N-5 via Suc)",
    "Readout type": "EC50",
    "Val": 3.96
  }
]

---

System tested: Melanocortin receptor 4 (Mus musculus, UniProt P56450)
Sequence (P56450 whole entry): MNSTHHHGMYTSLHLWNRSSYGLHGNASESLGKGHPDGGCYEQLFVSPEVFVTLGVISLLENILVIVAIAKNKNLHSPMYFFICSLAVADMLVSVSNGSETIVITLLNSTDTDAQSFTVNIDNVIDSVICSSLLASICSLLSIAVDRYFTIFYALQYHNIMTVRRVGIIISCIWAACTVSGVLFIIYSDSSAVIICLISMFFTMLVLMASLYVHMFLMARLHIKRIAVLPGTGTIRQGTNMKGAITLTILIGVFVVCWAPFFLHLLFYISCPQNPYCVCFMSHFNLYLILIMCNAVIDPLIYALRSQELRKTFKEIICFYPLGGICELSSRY
Test summary: Agonist activity at mouse MC4R expressed in HEK293 cells by beta-galactosidase reporter gene assay
Numbered stars: 1 amine (or outer) side, 2 acyl side, 3 side chain; on linkers, the order of the positions; unused ones are H or OH. Bridge positions count the residues as written; N and C are the ends. Square brackets hold non-standard residues; d marks the D form. Peptide text beside a SMILES is read from it. N(2-Aminoethyl)Gly = O=C(CN(CCN[*:3])[*:1])[*:2]; Adipoyl = O=C(CCCCC(=O)[*:2])[*:1]; Glutaryl = O=C(CCCC(=O)[*:2])[*:1]; Nphe = O=C(O)CNCc1ccccc1

[
  {
    "Compound": "NC(=O)CN1CCNC(=O)CCCC(=O)N(Cc2ccccc2)CC(=O)N(Cc2ccccc2)CC(=O)N[C@@H](CCCN=C(N)N)C(=O)N[C@@H](Cc2c[nH]c3ccccc23)C1=O ([Nphe][Nphe]RW[N(2-Aminoethyl)Gly]-NH2; linker N-5 via Glutaryl)",
    "System tested": "Melanocortin receptor 4 (Mus musculus, UniProt P56450)",
    "Units": "nM",
    "EC50": 2250
  },
  {
    "Compound": "NC(=O)CN1CCNC(=O)CCCCC(=O)N(Cc2ccccc2)CC(=O)N(Cc2ccccc2)CC(=O)N[C@@H](CCCN=C(N)N)C(=O)N[C@@H](Cc2c[nH]c3ccccc23)C1=O ([Nphe][Nphe]RW[N(2-Aminoethyl)Gly]-NH2; linker N-5 via Adipoyl)",
    "System tested": "Melanocortin receptor 4 (Mus musculus, UniProt P56450)",
    "Units": "nM",
    "EC50": 1700
  }
]
